# System: Bovine cardiac myofibrils
# Assay Comment: Dose-dependent myofibril ATPase modulation (calcium-buffered, pyruvate kinase and lactate dehydrogenase-coupled ATPase assay at pCa25)
# Format: biochemical
# Condition Notes: concentration at which ATPase activity was 1.4-fold higher than the bottom of the dose curve, mean of a minimum of two independent tests
Value Type: AC1.4 (µM)

Guide cases for AC1.4, answers given:
Molecule	Unit Symbol	Readout Number
Cc1[nH]c(S(=O)(=O)NC23COc4cc(F)c(Cl)cc4C2C3)cc1C(=O)N1CC(C)(C#N)C1 (stereo not shown)	µM	1.274
Cc1[nH]c(S(=O)(=O)N[C@@H]2COc3cc(F)c(Cl)cc3C2)cc1C(=O)N1CC(C)(C#N)C1	µM	0.0793

(P) Cc1[nH]c(S(=O)(=O)N[C@]2(Cc3ccc(Cl)cc3)CCOC2)cc1C(=O)N1CC(C)(C#N)C1 (single isomer, unassigned)
(Q) Cc1[nH]c(S(=O)(=O)N[C@H]2C[C@H](c3ccc(Cl)cc3)C2)cc1C(=O)N1CC(C)(C#N)C1
(R) Cc1cc(S(=O)(=O)N[C@@H]2COc3cc(F)c(Cl)cc3[C@@H]2O)cc(N2CC(C#N)C2)n1
(S) Cc1[nH]c(S(=O)(=O)N[C@@H]2Cc3cc(F)c(Cl)cc3C2)cc1C(=O)N1CC2(C1)CC(F)(F)C2
(T) Cc1cc(S(=O)(=O)N[C@@H]2COc3cc(F)c(Cl)cc3[C@@H]2O)cc(N2CC(O)C2)n1
Which order do these items take when sorted by rising AC1.4? List them. Please list the labels in the order you were asked to rank them.
P, S, Q, R, T
(P: 0.081 µM, S: 0.2269 µM, Q: 0.6222 µM, R: 1.3618 µM, T: 13.53 µM)

###

# Tested on: Bovine cardiac myofibrils
# Assay Comment: Dose-dependent myofibril ATPase modulation (calcium-buffered, pyruvate kinase and lactate dehydrogenase-coupled ATPase assay at pCa25)
# Assay type: biochemical
# Condition Notes: concentration at which ATPase activity was 1.4-fold higher than the bottom of the dose curve, mean of a minimum of two independent tests
Value Type: AC1.4 (µM)

Guide cases for AC1.4, answers given:
Molecule	Unit Symbol	AC1.4
Cc1[nH]c(S(=O)(=O)N[C@@H]2CCc3c([nH]c4ccccc34)C2)cc1C(=O)NCC(F)(F)F [Compound 45]	µM	0.4627
Cc1nc2ccc(S(=O)(=O)Nc3ccc(N4C[C@H](C)C[C@@H](C)C4)nc3)cc2c(=O)[nH]1 [Compound 5]	µM	4.4808
Cc1[nH]c(S(=O)(=O)N[C@@H]2Cc3cc(F)c(Cl)cc3C2)cc1C(=O)N1CC(C)(C#N)C1 (single isomer, unassigned) [Compound 83]	µM	0.06985
CNc1cc2c(cc1S(=O)(=O)NCCCNc1ccccc1)c(=O)[nH]c(=O)n2C [Compound 13]	µM	9.783
Cc1[nH]c(S(=O)(=O)N[C@@H]2COc3cc(F)c(Cl)cc3[C@@H]2O)cc1C(=O)N1CC(C)(C#N)C1 [Compound 78]	µM	0.1127
CCOC(=O)c1cc(S(=O)(=O)Nc2ccc(N3C[C@H](C)C[C@@H](C)C3)nc2)[nH]c1C [Compound 30]	µM	0.4832
CNc1cc2c(cc1S(=O)(=O)N[C@H]1C[C@@H](Nc3ccccc3F)C1)c(=O)[nH]c(=O)n2C [Compound 18]	µM	0.8832
Cc1[nH]c(S(=O)(=O)N[C@@H]2Cc3cc(F)c(Cl)cc3[C@H]2O)cc1C(=O)N1CC(C)(C#N)C1 [Compound 89]	µM	0.2521

(P) CNc1cc2nc(C)[nH]c(=O)c2cc1S(=O)(=O)Nc1ccc(N2C[C@H](C)C[C@@H](C)C2)nc1 [Compound 8]
(Q) CNc1cc2c(cc1S(=O)(=O)N[C@H]1[C@@H]3CN(c4cccc(F)c4)C[C@@H]31)c(=O)[nH]c(=O)n2C [Compound 22]
Determine, for P and Q , which has the greater value of AC1.4. # respond with the chosen item's label
P
(P: 0.6695 µM, Q: 0.4479 µM)

(1) Cc1[nH]c(S(=O)(=O)N[C@@H]2COc3ccc(Cl)cc3[C@@H]2O)cc1C(=O)N1CC(C#N)C1 [Compound 74]
(2) Cc1cc(S(=O)(=O)N[C@@H]2COc3cc(F)c(Cl)cc3[C@@H]2O)cc(N2CC(C)(C)C2)n1 [Compound 87]
(3) Cc1cc(S(=O)(=O)N[C@@H]2COc3cc(F)c(Cl)cc3[C@@H]2O)cc(N2CC[C@@H](C#N)C2)n1 [Compound 91]
(4) Cc1[nH]c(S(=O)(=O)N[C@@H]2Cc3cc(Cl)c(Cl)cc3[C@H]2O)cc1C(=O)N1CC(C)(C#N)C1 (racemic) [Compound 99]
Order field: AC1.4 | Direction: descending (largest first) Please list the labels in the order you were asked to rank them.
2, 3, 1, 4
(2: 3.783 µM, 3: 1.417 µM, 1: 0.5684 µM, 4: 0.2635 µM)

(a) Cc1[nH]c(S(=O)(=O)N[C@H]2COc3cc(Cl)ccc3C2)cc1C(=O)N1CC(C)(C#N)C1 (stereo in doubt) [Compound 16]
(b) Cc1nn([C@H]2C[C@H](NS(=O)(=O)c3cc(C(=O)N4CC(C#N)C4)c(C)[nH]3)C2)cc1C(F)(F)F [Compound 56]
(c) CNc1cc2c(cc1S(=O)(=O)N[C@H]1C[C@@H](Nc3ccc(F)cc3)C1)c(=O)[nH]c(=O)n2C [Compound 25]
(d) Cc1[nH]c(S(=O)(=O)N[C@H]2C[C@H](c3cccc(Cl)c3)C2)cc1C(=O)N1CC(C)(C#N)C1 [Compound 50]
(e) Cc1[nH]c(S(=O)(=O)N[C@@H]2Cc3ccc(C(F)(F)F)cc3C2)cc1C(=O)N1CC(C)(C#N)C1 (single isomer, unassigned) [Compound 76]
Order field: AC1.4 | Direction: descending (largest first) Please list the labels in the order you were asked to rank them.
a, c, b, d, e
(a: 8.4932 µM, c: 1.8965 µM, b: 0.9674 µM, d: 0.5466 µM, e: 0.1121 µM)
